The origin of these recorded values is ChEMBL document CHEMBL1131052.

targetOrSystem: Neutrophil collagenase (Homo sapiens, UniProt P22894)
Sequence (P22894 whole entry): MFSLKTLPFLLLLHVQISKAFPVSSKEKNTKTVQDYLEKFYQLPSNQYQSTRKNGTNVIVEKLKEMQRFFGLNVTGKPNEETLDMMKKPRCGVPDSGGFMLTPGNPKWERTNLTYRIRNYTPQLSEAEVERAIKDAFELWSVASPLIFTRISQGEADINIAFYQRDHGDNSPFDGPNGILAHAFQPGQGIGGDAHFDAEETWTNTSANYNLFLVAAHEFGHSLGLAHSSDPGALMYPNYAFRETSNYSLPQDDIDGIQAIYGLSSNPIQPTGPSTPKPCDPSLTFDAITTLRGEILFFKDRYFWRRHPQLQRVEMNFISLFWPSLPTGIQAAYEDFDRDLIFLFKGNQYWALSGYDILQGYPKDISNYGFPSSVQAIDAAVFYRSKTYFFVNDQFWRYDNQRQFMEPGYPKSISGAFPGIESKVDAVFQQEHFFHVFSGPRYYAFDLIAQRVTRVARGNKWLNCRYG
procedureDetails: Inhibition of human neutrophil collagenase (Matrix metalloprotease-8)
measure: Ki (µM)

I: CC(Cc1ccccc1)(C(=O)NO)C(=O)NCCCCc1ccccc1 (centres undefined)
II: O=C(NO)C(O)(Cc1ccccc1)C(=O)NCc1ccccc1 (centres undefined)
III: CCOC(=O)C(C)(Cc1ccccc1)C(=O)NO (centres undefined)
IV: CC(Cc1ccccc1)(C(=O)NO)C(=O)NCCCc1ccccc1 (centres undefined)
Q) Kindly provide a descending ordering of the above molecules based on their Ki. Give your ranking as a list of the labels in the requested order.
A) III, II, I, IV
(III: 11 µM, II: 1.9 µM, I: 0.38 µM, IV: 0.24 µM)
